Target: Growth hormone secretagogue receptor type 1 (Homo sapiens, UniProt Q92847); further: assay procedure not described here
Sequence (Q92847 whole entry): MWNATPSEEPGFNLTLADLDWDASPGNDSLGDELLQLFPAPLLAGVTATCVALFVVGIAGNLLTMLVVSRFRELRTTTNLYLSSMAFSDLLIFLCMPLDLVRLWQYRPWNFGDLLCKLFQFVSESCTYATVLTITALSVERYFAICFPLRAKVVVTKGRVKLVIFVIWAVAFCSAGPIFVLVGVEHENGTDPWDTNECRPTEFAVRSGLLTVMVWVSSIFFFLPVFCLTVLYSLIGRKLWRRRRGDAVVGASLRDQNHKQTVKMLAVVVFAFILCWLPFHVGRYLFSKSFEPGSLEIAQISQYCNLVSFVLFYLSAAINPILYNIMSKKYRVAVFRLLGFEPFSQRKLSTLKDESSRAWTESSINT
This section presents compounds with their documented AC50 values.

compound: CO/N=C(\C(=O)N[C@@H]1C(=O)N2C(C(=O)O)=C(CSc3nnnn3C)CS[C@H]12)c1csc(N)n1 [CEFMENOXIME]
AC50: > 30 µM
--
compound: CN1C(=O)C(O)N=C(c2ccccc2Cl)c2cc(Cl)ccc21 (centres undefined) [LORMETAZEPAM]
AC50: > 30 µM
--
compound: COc1cc2c(N)nc(N3CCN(C(=O)OCC(C)(C)O)CC3)nc2c(OC)c1OC [TRIMAZOSIN]
AC50: > 30 µM
--
compound: Cn1c(=O)c2c(ncn2CC2OCCO2)n(C)c1=O [DOXOFYLLINE]
AC50: > 30 µM
--
compound: O=C(OCC(O)CO)c1ccccc1Nc1ccnc2cc(Cl)ccc12 (centres undefined) [GLAFENINE]
AC50: > 30 µM
--
compound: CC(CC(c1ccccc1)c1ccccc1)NC(C)(C)C (centres undefined) [TERODILINE]
AC50: > 30 µM
--
compound: CCCc1nc(C(C)(C)O)c(C(=O)OCc2oc(=O)oc2C)n1Cc1ccc(-c2ccccc2-c2nnn[nH]2)cc1 [OLMESARTAN MEDOXOMIL]
AC50: > 50 µM
--
compound: C/C(O)=C(\C#N)C(=O)Nc1ccc(C(F)(F)F)cc1 [TERIFLUNOMIDE]
AC50: > 30 µM
--
compound: Brc1c(NC2=NCCN2)ccc2nccnc12 [BRIMONIDINE]
AC50: > 30 µM
